target: Sodium channel protein type 5 subunit alpha (Homo sapiens); experiment: Inhibition of sodium Nav1.5 channel assessed as inhibition of late sodium current elicited at -30 mV from holding potential of -90 mV
Sequence (Q14524 whole entry): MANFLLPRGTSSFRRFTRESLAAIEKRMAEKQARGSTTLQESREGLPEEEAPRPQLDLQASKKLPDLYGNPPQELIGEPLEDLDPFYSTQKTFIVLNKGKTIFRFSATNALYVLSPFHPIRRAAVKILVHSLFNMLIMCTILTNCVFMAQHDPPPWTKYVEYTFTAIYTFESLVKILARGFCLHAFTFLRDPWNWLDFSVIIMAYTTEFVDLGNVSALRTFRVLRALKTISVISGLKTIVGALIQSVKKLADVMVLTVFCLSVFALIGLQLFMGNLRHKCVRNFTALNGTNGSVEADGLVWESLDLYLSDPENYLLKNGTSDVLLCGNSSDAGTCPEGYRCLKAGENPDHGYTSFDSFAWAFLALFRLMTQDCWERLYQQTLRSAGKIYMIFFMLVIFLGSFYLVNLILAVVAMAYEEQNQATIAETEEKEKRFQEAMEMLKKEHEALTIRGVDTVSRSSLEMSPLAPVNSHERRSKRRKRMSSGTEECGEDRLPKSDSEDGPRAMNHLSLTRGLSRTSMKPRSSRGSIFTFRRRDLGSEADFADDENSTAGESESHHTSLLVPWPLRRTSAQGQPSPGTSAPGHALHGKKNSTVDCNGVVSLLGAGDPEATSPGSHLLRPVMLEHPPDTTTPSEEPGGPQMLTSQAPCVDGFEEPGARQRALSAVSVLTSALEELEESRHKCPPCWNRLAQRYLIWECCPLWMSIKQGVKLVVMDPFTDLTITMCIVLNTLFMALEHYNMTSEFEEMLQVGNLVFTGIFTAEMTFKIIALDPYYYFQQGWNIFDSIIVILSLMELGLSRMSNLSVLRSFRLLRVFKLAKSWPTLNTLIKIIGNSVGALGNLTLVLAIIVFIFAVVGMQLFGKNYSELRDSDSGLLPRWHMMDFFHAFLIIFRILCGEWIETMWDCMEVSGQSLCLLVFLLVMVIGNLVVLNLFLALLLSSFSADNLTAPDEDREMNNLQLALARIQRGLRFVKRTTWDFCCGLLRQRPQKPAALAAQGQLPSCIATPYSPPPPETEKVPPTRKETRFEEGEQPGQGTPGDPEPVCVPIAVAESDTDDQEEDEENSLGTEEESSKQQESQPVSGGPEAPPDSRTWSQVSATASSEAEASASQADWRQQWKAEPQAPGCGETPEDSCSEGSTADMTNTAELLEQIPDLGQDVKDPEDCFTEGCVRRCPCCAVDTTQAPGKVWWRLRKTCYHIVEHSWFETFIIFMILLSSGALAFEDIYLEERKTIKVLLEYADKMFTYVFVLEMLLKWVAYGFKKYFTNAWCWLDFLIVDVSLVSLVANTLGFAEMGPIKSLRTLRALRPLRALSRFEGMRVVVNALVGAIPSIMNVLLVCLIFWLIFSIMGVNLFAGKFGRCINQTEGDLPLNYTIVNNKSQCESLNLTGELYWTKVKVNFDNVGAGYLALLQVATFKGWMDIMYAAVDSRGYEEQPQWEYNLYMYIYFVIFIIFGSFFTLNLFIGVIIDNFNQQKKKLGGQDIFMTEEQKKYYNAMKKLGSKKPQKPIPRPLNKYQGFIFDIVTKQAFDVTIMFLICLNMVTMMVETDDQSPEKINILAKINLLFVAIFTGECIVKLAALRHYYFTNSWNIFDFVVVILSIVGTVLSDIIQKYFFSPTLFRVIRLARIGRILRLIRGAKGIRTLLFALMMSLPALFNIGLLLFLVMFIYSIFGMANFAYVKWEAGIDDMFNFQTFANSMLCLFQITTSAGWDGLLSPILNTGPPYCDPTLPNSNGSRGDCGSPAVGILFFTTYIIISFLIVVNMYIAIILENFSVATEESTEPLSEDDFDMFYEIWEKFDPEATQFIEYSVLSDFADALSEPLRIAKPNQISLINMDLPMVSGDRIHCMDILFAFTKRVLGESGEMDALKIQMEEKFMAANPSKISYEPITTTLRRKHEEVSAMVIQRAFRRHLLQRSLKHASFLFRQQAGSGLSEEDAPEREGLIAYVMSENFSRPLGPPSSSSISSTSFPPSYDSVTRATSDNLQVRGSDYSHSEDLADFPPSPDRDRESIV

# structure_smiles_string, unit_spec, IC50
measured = [
    ("COc1ccccc1SC[C@@H](C)CN[C@@H]1COc2ccccc2SC1", "µM", 5.77),
]

----------
Listed here: items and their measured inhibition at 10 µM.
target: Sodium channel protein type 5 subunit alpha (Homo sapiens); test: Inhibition of human sodium Nav1.5 channel expressed in HEK293 cells assessed as inhibition of veratridine-induced late sodium current elicited at -30 mV from holding potential of -90 mV at 10 uM by patch clamp technique; assay type: cell-based; settings: HEK293, human

# compound, tested_on, inhibition at 10 µM, %
measured = [
    ("CCO[C@@H](CN[C@@H]1COc2ccccc2SC1)CSc1ccccc1OC", "Sodium channel protein type 5 subunit alpha (Homo sapiens)", 34),
    ("COc1ccccc1SCC(O)CN[C@@H]1COc2ccccc2SC1 (mixture of isomers)", "Sodium channel protein type 5 subunit alpha (Homo sapiens)", 42),
    ("CC[C@@H](CN[C@@H]1COc2ccccc2SC1)CSc1ccccc1OC", "Sodium channel protein type 5 subunit alpha (Homo sapiens)", 54),
    ("COc1ccccc1SC[C@H](CN[C@@H]1COc2ccccc2SC1)OC", "Sodium channel protein type 5 subunit alpha (Homo sapiens)", 27),
    ("COc1ccccc1SCC(CN[C@@H]1COc2ccccc2SC1)=C(C)C", "Sodium channel protein type 5 subunit alpha (Homo sapiens)", 37),
    ("COc1ccccc1SC[C@H](C)CN[C@@H]1COc2ccccc2SC1", "Sodium channel protein type 5 subunit alpha (Homo sapiens)", 34),
    ("COc1ccccc1SC[C@H](O)CN[C@@H]1COc2ccccc2SC1", "Sodium channel protein type 5 subunit alpha (Homo sapiens)", 30),
    ("COc1ccccc1SC[C@@H](F)CN[C@@H]1COc2ccccc2SC1", "Sodium channel protein type 5 subunit alpha (Homo sapiens)", 19),
    ("COc1ccccc1OCC(O)CN1CCN(CC(=O)Nc2c(C)cccc2C)CC1 (centres undefined)", "Sodium channel protein type 5 subunit alpha (Homo sapiens)", 19),
    ("CCC[C@@H](CN[C@@H]1COc2ccccc2SC1)CSc1ccccc1OC", "Sodium channel protein type 5 subunit alpha (Homo sapiens)", 23),
    ("CCCO[C@@H](CN[C@@H]1COc2ccccc2SC1)CSc1ccccc1OC", "Sodium channel protein type 5 subunit alpha (Homo sapiens)", 27),
    ("COc1ccccc1SC[C@H](C)CN[C@H]1COc2ccccc2SC1", "Sodium channel protein type 5 subunit alpha (Homo sapiens)", 44),
    ("COc1ccc(CCN(C)CCCOc2nsc(-c3ccccc3)n2)cc1OC", "Sodium channel protein type 5 subunit alpha (Homo sapiens)", 60),
    ("COc1ccccc1SC[C@@H](C)CN[C@@H]1COc2ccccc2SC1", "Sodium channel protein type 5 subunit alpha (Homo sapiens)", 70),
]
